Target: sIL-6R (soluble IL-6 receptor alpha) (human, UniProt P08887 20-355)
Sequence (P08887 20-355): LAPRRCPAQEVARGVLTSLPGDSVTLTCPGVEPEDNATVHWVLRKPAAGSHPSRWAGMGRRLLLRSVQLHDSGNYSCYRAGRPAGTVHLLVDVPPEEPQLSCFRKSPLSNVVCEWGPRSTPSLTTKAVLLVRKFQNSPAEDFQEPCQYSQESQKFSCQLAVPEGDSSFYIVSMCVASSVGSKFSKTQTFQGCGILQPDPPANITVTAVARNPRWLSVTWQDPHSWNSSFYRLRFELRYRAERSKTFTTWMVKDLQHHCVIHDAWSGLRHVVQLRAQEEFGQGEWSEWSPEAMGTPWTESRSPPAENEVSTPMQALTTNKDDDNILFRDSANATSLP
Test: pull-down, real-time PCR; 1x PBSMT pH 7.2: 137 mM NaCl, 2.68 mM KCl, 8.1 mM Na2HPO4, 1.76 mM KH2PO4, 1 mM MgCl2, 0.025% Tween-20; pull-down 1 h (room temperature in SELEX); MST at 25 C
Settings: protein: commercial; circular
Recorded metric: binding result

Before answering, review these 4 worked examples.
{"columns": ["Binder", "binding result"],
 "data": [
  ["CIL-6D (ssDNA, circular) DNA: ATCTCGACTAGTTAGACGCTACGTGCGGATGGGGAGGCTGTGGTGAGGGTTGGTGTTCTCGGATGATGGTGTCTCGGAT", "binds"],
  ["CIL-6B (ssDNA, circular) DNA: ATCTCGACTAGTCAGGTGTTGTAATGGTAAGGGGAGGCTGTGGTGAGGGTTGGTTGTCACGGATAGTTGTGTCTCGGAT", "binds"],
  ["CIL-6A46 (ssDNA, circular) DNA: ATCTCGACTAGTCAGGGATATGGGGAGGCTGTGGTGAGGGTATGGTTGTCTCGGATTGGTTGTCTCGGAT", "binds"],
  ["CIL-6A4-1 (ssDNA, circular) DNA: ATCTCGACTAGTCAGGGATACCGGATGGGGAGGCTGTGGTGAGGGTATGGTTGTCTCGGATTGGTTGTCTCGGAT", "binds"]
]}

Turning to the following binder.
Problem: Please give the measured binding result for this binder: CIL-6C (ssDNA, circular) DNA: ATCTCGACTAGTCATATGGTGTAGATCCTTGGGGAGGCTGTGGTGAGGGGGTTGAAGGTAGTTGCTCGTTGTCTCGGAT
Solution: binds
